assay: SK-BR-3 cell growth inhibitors, pilot screen, 24 h, human (AID 572); conditions: SK-BR-3 viability, CellTiter-Glo luminescence, at 10 µM, active compounds read low;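 note: compound exposure lasted between 18 and 24 h rather than exactly 24 h; 100% = carrier-treated control wells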
Documented viability across a set of compounds
Quantity measured: viability (%)

                                    compound  unit_of_measure  value_observed
 0  CCn1nnc(-c2ccccc2NC(=O)c2ccc(-n3cnnn3)cc2)n1                %            95.5
 1  CCOC(=O)C1CCN(C(c2cc3cc(C)cc(C)c3[nH]c2=O)c2nnnn2C2CCCCC2)CC1 (configuration not stated)                %            69.5
 2  COC(=O)C1=C(C)NC(=O)C1(Nc1ccc(Cl)cn1)C(F)(F)F (configuration not stated)                %            90.5
 3  COc1ccc(-c2nnc3ccc(SC(C(C)=O)C(C)=O)nn23)cc1OC                %              90
 4  O=C(OC1CCOC1=O)c1ccc(S(=O)(=O)N2CCCCCC2)cc1 (configuration not stated)                %            95.5
 5  COc1ccc(N2CCN(C(c3cccs3)c3nnnn3C3CCCC3)CC2)cc1 (configuration not stated)                %            90.5
 6  CC(=O)c1c(C)nn(CC(O)COc2ccc3c(c2)CCC3)c1C (configuration not stated)                %            93.5
 7  COc1ccc(OCc2nc(N)nc(Nc3cccc(C)c3C)n2)cc1                %            98.5
 8  Cc1cccc(CS(=O)(=O)Cc2ccc(C(=O)NCC3CCCO3)o2)c1 (configuration not stated)                %            85.5
 9  CCOC(=O)c1ccc2nc(NC(NC(C)=O)(C(=O)OC)C(F)(F)F)sc2c1 (configuration not stated)                %            98.5
10  COc1ccc(-c2cc3nc(C)c(CCC(=O)NCc4ccco4)c(C)n3n2)c(OC)c1                %             103
11       COc1cc(NS(=O)(=O)N2CCCC2)cc(OC)c1OC                %            83.5
12  CCOC(=O)c1c(-c2ccc(C)o2)csc1NC(=O)COC(=O)c1cccs1                %              93
13         CC(=Nc1ccc(C)c(C)c1)C1=C(O)CCC1=O                %             102
14           CCCCc1ccc(NC(=O)c2c(C)noc2C)cc1                %             105
15  O=C(CN1CCCCCC1)OCCN=C1NS(=O)(=O)c2ccccc21                %             108
16  CC(C)C1N=C2c3ccccc3N=C(SCc3cc(=O)n4ccccc4n3)N2C1=O (configuration not stated)                %              89
17  CCn1c(SCc2nc3ccccc3c(=O)[nH]2)nnc1-c1cccnc1                %            84.5
18        CCn1c(NCc2ccc(N(C)C)cc2)nc2ccccc21                %            84.5
19  CCOC(=O)C1CCN(c2nc3ccccc3nc2C(C#N)C(=O)OCCOC)CC1 (configuration not stated)                %              97
20  Cc1cc(C(F)(F)F)nn1Cc1ccc(C(=O)NCc2ccco2)o1                %              97
21      Cc1ccccc1NC(=O)c1c(F)c(F)c(F)c(F)c1F                %            90.5
22  CC(=O)Nc1ccc2c(c1)nc(CCNC(=O)c1ccccc1)n2C                %            90.5
23  CCOC(=O)c1ccc(NC(=O)NC(C)C2CCCO2)cc1 (configuration not stated)                %            97.5
24           O=S(=O)(Nc1cccc2ncccc12)c1cccs1                %             256
25           C=Cn1c(C(=O)O)cc(CC)c1-c1ccccc1                %              96
26  CN1C2C=C3C(C#N)=C(N)C(C#N)(C#N)[C@@H](c4ccc(Cl)cc4)[C@@H]3C1CC2 (some centres not stated)                %              95
27      FC(F)(F)c1cc(-c2ccco2)nc(N2CCOCC2)n1                %              86
28                  CCNC(=O)COc1ccc(Br)cc1Cl                %              96
29  COc1ccc(-n2ccnc2SCC(=O)NCc2ccc3c(c2)OCO3)cc1                %             128
30  C=CCOc1ccc(C2C(C(=O)c3ccco3)=C(O)C(=O)N2Cc2cccnc2)cc1 (configuration not stated)                %             108
31  Cc1ccc(C(=O)Nc2ccc3c(c2)OCO3)cc1S(=O)(=O)N1CCCC1                %             102

Measured values drawn from PubChem BioAssay for this set.
